assay: NCI Yeast Anticancer Drug Screen. Data for the rad50 strain (AID 155);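 further: 0% = growth of vehicle-only cultures of the same strain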; settings: S. cerevisiae rad50 strain growth inhibition; at 50.0 µM; hits give high values
This is part of a sample that, as a whole, favours compounds with a hit. Of some 79,000 tested, about 15% had one in any assay.
Kindly return class 1 if reported growth inhibition is no lower than 70%; return class 0 if it is lower.

In: Evaluate `O=C(NCC#CCO)C(F)(F)F` : growth inhibition at minimum 70%?
Out: class 0

====

test: NCI Yeast Anticancer Drug Screen. Data for the rad50 strain (AID 155);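 further: 0% = growth of vehicle-only cultures of the same strain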; conditions: S. cerevisiae rad50 strain growth inhibition; at 50.0 µM (retest, dose inferred, filed as 5.0)
Compounds without any hit were thinned out: in the full panel of roughly 79,000, 15% have a hit. Activity calls are given as the source filed them. Rule as the data show it: active = growth inhibition above about 70%; inactive = the rest.
Your answer must be one of the following: active, inactive

Answered examples (5):
compound	assigned-label
CC1=CC(=O)C=C(Br)C1=O	active
COC(=O)C1C2CC3c4[nH]c5cc(OC)c(Br)cc5c4CCN3CC2CC(OC(=O)c2cc(OC)c(OC)c(OC)c2)C1OC (stereo not drawn)	active
CCCCCCCCCN1CCNC1=S	inactive
COc1cc(CNC(=O)CCCCCCCCCCSC#N)ccc1O	inactive
COc1cc(C(=O)OCC(C)C)ccc1O	inactive

In: # fetch the recorded call for O=C1NC(CSSCC2NC(=O)N(c3ccccc3)C2=O)C(=O)N1c1ccccc1 (stereo not drawn) here
Out: active

In: Can you look up the reported call for `Cc1cccc[c]1[Sn]([Cl])([O][Sn]([Cl])([c]1ccccc1C)[c]1ccccc1C)[c]1ccccc1C` for me?
Out: active

In: I'd appreciate the recorded outcome for `O=c1cc2cccccc-2cc1O` from this test.
Out: active

In: Which outcome did this test record for the compound `CCCCCCCCC1N(C)CCCN1C` ?
Out: active

In: Any idea what this test logged for `O=C1c2ccccc2C(=O)c2c1ccc(C(=O)O)c2-c1ccc2ccccc2c1` ?
Out: active

In: Hi team, can someone confirm the assay call for `Cn1c(=O)c2c(O)c(-c3ccccc3)c(=O)n3c4ccccc4n(c1=O)c23` ?
Out: inactive

In: Fill in: this test's call for `CN(C)Cc1ccc2c(c1)c1c(n2Cc2ccccc2)CCCC1` is ___
Out: active
